MEASURED_TARGET: EGFR L858R/T790M/C797S (Homo sapiens, UniProt P00533, C797S/L858R/T790M)
Sequence (P00533 25-1210 T790M/C797S/L858R): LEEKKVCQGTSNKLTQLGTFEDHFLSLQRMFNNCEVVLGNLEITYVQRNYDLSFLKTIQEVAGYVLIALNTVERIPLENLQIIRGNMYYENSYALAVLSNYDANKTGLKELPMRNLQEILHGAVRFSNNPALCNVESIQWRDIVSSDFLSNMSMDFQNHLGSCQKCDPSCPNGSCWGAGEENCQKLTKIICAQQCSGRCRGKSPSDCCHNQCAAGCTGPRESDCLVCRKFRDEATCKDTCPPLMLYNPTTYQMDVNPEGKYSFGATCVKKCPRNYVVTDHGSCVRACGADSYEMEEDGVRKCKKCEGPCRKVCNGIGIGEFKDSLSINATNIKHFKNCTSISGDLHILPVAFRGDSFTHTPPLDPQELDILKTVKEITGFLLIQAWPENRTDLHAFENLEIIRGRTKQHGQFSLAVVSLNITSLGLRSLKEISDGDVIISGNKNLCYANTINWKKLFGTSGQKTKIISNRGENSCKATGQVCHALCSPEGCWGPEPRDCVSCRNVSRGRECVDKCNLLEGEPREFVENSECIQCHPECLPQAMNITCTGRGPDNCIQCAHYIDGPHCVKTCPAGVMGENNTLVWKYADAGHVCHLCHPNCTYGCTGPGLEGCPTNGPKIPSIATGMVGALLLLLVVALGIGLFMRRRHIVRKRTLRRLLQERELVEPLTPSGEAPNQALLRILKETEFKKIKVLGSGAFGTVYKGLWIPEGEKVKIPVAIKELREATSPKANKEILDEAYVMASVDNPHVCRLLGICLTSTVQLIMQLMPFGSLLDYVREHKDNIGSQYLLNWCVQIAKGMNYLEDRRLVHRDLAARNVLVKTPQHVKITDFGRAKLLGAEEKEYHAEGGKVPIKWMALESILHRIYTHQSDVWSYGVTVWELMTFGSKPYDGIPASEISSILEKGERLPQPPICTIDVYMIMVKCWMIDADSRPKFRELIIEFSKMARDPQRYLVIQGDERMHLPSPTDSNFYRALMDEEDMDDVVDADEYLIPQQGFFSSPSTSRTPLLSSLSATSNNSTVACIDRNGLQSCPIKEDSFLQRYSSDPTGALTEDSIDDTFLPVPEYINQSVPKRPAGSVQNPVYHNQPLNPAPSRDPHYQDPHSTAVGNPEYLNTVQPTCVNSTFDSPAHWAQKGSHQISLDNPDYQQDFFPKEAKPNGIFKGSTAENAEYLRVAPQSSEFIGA
ASSAY_EXPLANATION: Biochemical EGFR kinase assay (Lance Ultra TR-FRET), triple mutant L858R/T790M/C797S
CONDITIONS_USED: Km ATP; read-out: IC50 L858R/T790M/C797S (nM) Km ATP
Protocol: Biochemical EGFR kinase assays were conducted using Lance Ultra time-resolved fluorescence resonance energy transfer (TR-FRET) technology from Perkin-Elmer. […] Each kinase reactions were incubated at room temperature for 1 hour and then stopped by the addition of 4 μL of stop solution (10 mM EDTA). […] After 60 minutes incubation at room temperature the LANCE signal was measured on an EnVision Multilabel Reader (Perkin-Elmer). […]
I'd be grateful if you could share measured log10(IC50) for these entries.
Scale type: logarithmic (base 10). Underlying IC50 unit: nM.

Previously resolved entries follow.
COMPOUND	log10(IC50)
O=S(=O)(C1CC1)n1cc(-c2ncc(F)c(Nc3cc(N[C@H]4CC[C@@H](CN5CCC5)CC4)c(-c4ccn(C(F)F)n4)cn3)n2)cn1	-0.70
COc1ccc(-c2nccc(Nc3cc(N[C@H]4CC[C@@](C)(O)CC4)c(-c4ccn(C(F)F)n4)cn3)n2)c(F)n1	0.56

Quick batch: log10(IC50) for everything below.
1. CC(C)n1cc(C#Cc2cc(Nc3ccnc(-c4cnn(S(=O)(=O)C5CC5)c4)n3)ncc2-c2cnn(C3CC3)c2)cn1
2. O=S(=O)(C1CC1)n1cc(-c2nccc(Nc3cc(N[C@H]4CC[C@@H](NCC(F)F)CC4)c(-c4csc(C(F)(F)F)n4)cn3)n2)cn1
3. CS(=O)(=O)n1ccc(-c2nccc(Nc3cc(N[C@H]4CC[C@@](C)(O)CC4)c(-c4ccn(C(F)F)n4)cn3)n2)c1
4. Cn1ccc(-c2cnc(Nc3ccnc(-c4cnn(S(=O)(=O)C5CC5)c4)n3)cc2NCC2CCC(C(F)F)CC2)n1 (stereo not drawn)

(A)
1: 1.29; 2: 0.46; 3: -0.30; 4: 0.54
